Recorded CC50 at 24 h for the following compounds
- assay.explanation: HepG2 cytotoxicity assay
- Type: cell-based
- conditions: human, HepG2 cells

compound	limit.sign	CC50 at 24 h (µM)
Clc1ccc2c(Nc3ccc(C4CCNCC4)cc3)ccnc2c1 [Compound 39]	=	58
CCN1CCOCC1c1ccc(Nc2c(-c3ccc(OC(F)(F)F)cc3)cnc3cc(Cl)ccc23)cc1 (stereo not shown) [Compound 14]	>	200
FC(F)(F)Oc1ccc(-c2cnc3cc(Cl)ccc3c2Nc2ccc(N3CCOCC3)cc2)cc1 [Compound 8]	>	200
CCN1CCN(c2ccc(Nc3ccnc4cc(Br)ccc34)cc2)CC1 [Compound 25]	=	48
